- target_system: GLP-1 receptor (GLP-1R) (human, UniProt P43220 24-463)
- method_notes: cell-based or functional assay
Non-standard residues stand in square brackets, D forms with d. Groups on a side chain read outwards from the residue. Primed or numbered codes have the meaning given here. No end group written: not given here. *: point of attachment. Dodecylbenzoate = dodecylbenzoyl lipid group; Stearoyl = CCCCCCCCCCCCCCCCCC(=O)*; αMeF = C[C@](N)(Cc1ccccc1)C(=O)O; αMeK = C[C@](N)(CCCCN)C(=O)O; Lauroyl = CCCCCCCCCCCC(=O)*; αMeS = C[C@](N)(CO)C(=O)O; PEG2′ = not defined here; Aib = CC(C)(N)C(=O)O; Ahx = NCCCCCC(=O)O
measurement_name: Primary assay EC50 (cAMP), GLP-1R n1 (pM)

IN: Provide measured Primary assay EC50 (cAMP), GLP-1R n1 value, entry: H[Aib]EGS[αMeF]TSDV[αMeS]S[αMeF]LEGEAAK([PEG2′-PEG2′-Stearoyl])E[αMeF]IA[αMeF]VV[αMeK]GG-NH2 [SEQ ID NO 153]
OUT: 7.9

P = H[Aib]EGS[αMeF]TSDV[αMeS]S[αMeF]LEGEAA[αMeK]E[αMeF]IA[αMeF]VVK([Ahx-Ahx-Dodecylbenzoate])GG-NH2 [SEQ ID NO 177]
Q = H[Aib]EGS[αMeF]TSDV[αMeS]S[αMeF]LEGEAA[αMeK]E[αMeF]IA[αMeF]VVK([PEG2′-PEG2′-PEG2′-Lauroyl])GG-NH2 [SEQ ID NO 172]
R = H[Aib]EGS[αMeF]TSDV[αMeS]S[αMeF]LEGEAA[αMeK]E[αMeF]IA[αMeF]VVK([PEG2′-PEG2′-PEG2′-Stearoyl])GG-NH2 [SEQ ID NO 199]
IN: Hello, I need these entries ordered by Primary assay EC50 (cAMP), GLP-1R n1, highest reading first. Thanks! Could you list the labels in the order requested?
OUT: R, P, Q
(R: 29 pM, P: 6.4 pM, Q: 1.5 pM)
